This collection of values is drawn from paper PMC11984407.

target: hERG channel (Homo sapiens); assay: Manual whole-cell patch clamp on HEK cells stably expressing hERG
Sequence (Q12809 whole entry): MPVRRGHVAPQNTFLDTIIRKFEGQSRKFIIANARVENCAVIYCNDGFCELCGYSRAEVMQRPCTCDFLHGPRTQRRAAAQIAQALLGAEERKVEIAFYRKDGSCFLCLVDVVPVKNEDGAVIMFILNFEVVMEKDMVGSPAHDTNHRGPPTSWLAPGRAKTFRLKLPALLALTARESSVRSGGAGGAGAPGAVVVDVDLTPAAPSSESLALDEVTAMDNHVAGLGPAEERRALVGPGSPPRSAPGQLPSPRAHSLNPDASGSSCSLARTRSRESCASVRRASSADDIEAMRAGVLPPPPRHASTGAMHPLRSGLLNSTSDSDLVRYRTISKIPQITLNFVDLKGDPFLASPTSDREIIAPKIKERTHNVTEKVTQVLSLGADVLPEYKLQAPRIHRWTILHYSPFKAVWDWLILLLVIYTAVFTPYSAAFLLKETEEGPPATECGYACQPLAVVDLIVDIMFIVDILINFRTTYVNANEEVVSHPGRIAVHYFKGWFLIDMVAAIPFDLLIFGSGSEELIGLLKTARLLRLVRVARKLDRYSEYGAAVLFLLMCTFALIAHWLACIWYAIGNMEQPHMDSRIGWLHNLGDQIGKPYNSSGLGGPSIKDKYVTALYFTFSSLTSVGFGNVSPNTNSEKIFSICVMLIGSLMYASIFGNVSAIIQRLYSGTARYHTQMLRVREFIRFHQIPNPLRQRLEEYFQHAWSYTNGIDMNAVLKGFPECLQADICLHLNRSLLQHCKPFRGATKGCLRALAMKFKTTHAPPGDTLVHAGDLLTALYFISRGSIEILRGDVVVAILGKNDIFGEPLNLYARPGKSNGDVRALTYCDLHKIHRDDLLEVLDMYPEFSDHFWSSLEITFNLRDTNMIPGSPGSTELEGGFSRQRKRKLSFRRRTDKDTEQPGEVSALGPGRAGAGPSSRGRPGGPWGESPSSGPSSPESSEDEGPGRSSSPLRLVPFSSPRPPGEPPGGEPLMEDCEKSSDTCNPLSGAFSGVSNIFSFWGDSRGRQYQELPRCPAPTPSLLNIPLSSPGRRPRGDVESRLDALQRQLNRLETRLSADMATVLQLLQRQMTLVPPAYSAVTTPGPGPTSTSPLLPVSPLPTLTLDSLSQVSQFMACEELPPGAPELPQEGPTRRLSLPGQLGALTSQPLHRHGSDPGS
pIC50: −log10 of the molar value.
measure: pIC50

In [3]: df
Out[3]:
                                 itemsmiles  reported
0  COc1ccc(-c2cc(=O)c3c(O)cc(O)c(-c4cc(-c5cc(=O)c6c(O)cc(O)cc6o5)ccc4OC)c3o2)cc1    < 4.52

---

target: recombinant ACLY protein (Homo sapiens); assay: ACLY activity assay in vitro (cell-free ADP-Glo assay); conditions: read-out: ACLY enzyme activity IC50
pIC50: −log10 of the molar value.
measure: pIC50

                                 itemsmiles  measure  reported
0  COc1ccc(-c2cc(=O)c3c(O)cc(O)c(-c4cc(-c5cc(=O)c6c(O)cc(O)cc6o5)ccc4OC)c3o2)cc1    pIC50      5.26

---

Molecular target: recombinant ACLY protein (Homo sapiens, UniProt P53396)
Sequence (P53396 1-1101): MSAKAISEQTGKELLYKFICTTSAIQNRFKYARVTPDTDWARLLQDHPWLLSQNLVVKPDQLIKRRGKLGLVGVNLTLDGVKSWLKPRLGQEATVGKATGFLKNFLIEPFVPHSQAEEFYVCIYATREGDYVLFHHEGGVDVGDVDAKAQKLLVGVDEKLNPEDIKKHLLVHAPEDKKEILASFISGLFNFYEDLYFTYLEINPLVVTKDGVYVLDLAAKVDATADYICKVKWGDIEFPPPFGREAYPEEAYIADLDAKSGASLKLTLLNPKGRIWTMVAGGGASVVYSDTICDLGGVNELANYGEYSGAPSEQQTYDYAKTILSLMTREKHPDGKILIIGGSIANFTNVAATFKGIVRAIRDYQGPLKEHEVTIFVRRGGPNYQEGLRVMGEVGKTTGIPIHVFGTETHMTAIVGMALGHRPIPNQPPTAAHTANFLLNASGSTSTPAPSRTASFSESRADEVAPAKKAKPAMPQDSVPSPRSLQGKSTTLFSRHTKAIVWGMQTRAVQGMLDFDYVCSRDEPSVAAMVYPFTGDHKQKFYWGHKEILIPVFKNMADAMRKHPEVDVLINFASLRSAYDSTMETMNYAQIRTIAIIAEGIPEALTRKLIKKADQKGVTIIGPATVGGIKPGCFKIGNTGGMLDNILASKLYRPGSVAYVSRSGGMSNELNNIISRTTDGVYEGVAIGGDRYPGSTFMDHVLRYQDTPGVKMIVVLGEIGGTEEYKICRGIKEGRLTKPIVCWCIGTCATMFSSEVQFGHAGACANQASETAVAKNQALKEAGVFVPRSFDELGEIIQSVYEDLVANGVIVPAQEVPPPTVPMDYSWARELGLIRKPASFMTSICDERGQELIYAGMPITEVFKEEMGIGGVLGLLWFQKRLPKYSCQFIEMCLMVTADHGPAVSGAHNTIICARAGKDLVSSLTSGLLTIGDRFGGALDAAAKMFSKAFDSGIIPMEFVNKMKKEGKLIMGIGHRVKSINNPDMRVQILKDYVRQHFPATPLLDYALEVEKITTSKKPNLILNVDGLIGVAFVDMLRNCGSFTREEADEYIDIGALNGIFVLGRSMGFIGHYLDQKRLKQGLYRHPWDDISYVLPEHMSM
Experiment: Surface plasmon resonance (OpenSPR)
Settings: SPR, 1:1 Langmuir model; read-out: equilibrium dissociation constant (KD)
pKd: −log10 of the molar value.
measure: pKd

In [3]: df
Out[3]:
                                 itemsmiles  measure  reported
0  COc1ccc(-c2cc(=O)c3c(O)cc(O)c(-c4cc(-c5cc(=O)c6c(O)cc(O)cc6o5)ccc4OC)c3o2)cc1      pKd      5.29
